Test system: Klebsiella pneumoniae (ATCC 43816)
assay_procedure: MIC by broth microdilution
Assay type: cell-based
test_parameters: Table 2, Example 2
Protocol: The antibacterial potency of the test article(s) was measured using the in vitro broth microdilution assay under assay conditions described by the Clinical and Laboratory Standards Institute. […] Following incubation for 1 day at 36° C., the test plates were visually examined and wells were scored for growth or complete growth inhibition to define the minimum inhibitory concentration. Each test substance was evaluated in duplicate and the results were reported as the duplicate test values. […]
measured_parameter: MIC

>  <entry_smiles>
N#Cc1ccc(CCc2cc(CCc3ccc(C#N)cc3)cc(CCc3ccc(C#N)cc3)c2)cc1

>  <target_of_assay>
Klebsiella pneumoniae (ATCC 43816)

>  <measured_parameter>
MIC

>  <result>
>32.0 µg/mL

$$$$
>  <entry_smiles>
CC(=O)ONc1ccc(CCc2cc(CCc3ccc(NOC(C)=O)cc3)cc(CCc3ccc(NOC(C)=O)cc3)c2)cc1

>  <target_of_assay>
Klebsiella pneumoniae (ATCC 43816)

>  <measured_parameter>
MIC

>  <result>
>32.0 µg/mL

$$$$
>  <entry_smiles>
CN(C)c1ccc(/C=C/c2cc(/C=C/c3ccc(N(C)C)cc3)cc(/C=C/c3ccc(N(C)C)cc3)c2)cc1

>  <target_of_assay>
Klebsiella pneumoniae (ATCC 43816)

>  <measured_parameter>
MIC

>  <result>
>128 µg/mL

$$$$

// moving on: another record for MIC
Lab note: `NC(=O)Cc1ccc(/C=C/c2cc(/C=C/c3ccc(CC(N)=O)cc3)cc(/C=C/c3ccc(CC(N)=O)cc3)c2)cc1` gave MIC of >128 µg/mL
